Origin of the recorded values: PubChem BioAssay (NCATS)

experiment: MultiTox-Fluor Cytotoxicity Assay - LYMP1-003 - Dead Cells (AID 961); settings: LYMP1-003 lymphoblastoid cells, dead-cell protease fluorescence; series mostly up to 92.2 µM;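 further: cells exposed to compound for 16 h at 37 °C; nearly all actives have a fitted effect of over 70% in size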
The source made the active and inactive calls. The call rests on the fitted dose curve; in most records, active means well fitted cell-killing curve with a large enough effect; inconclusive means small, poorly fitted or top-dose-only effect, or effect the other way; inactive means flat fitted curve, though single readings scatter.
Select the correct class. Options are active, inactive and nothing else.

Here are 3 compounds together with their reported answers.
# structureAsSmiles, classAssignment
rows = [
    ("NC(=O)N1c2ccccc2C=Cc2ccccc21", "inactive"),
    ("CN=C(NC#N)NCCSCc1nc[nH]c1C", "inactive"),
    ("NC(=Nc1ccccc1)Nc1ccccc1", "inactive"),
]

Which outcome was entered for the compound "COc1ccc(CN(CCN(C)C)c2ccccn2)cc1" in this test? inactive

Which outcome was entered for the compound "CCCCNC(=O)NS(=O)(=O)c1ccc(C)cc1" in this test? inactive

Which outcome was entered for the compound "COC(=O)[C@H]1[C@H]2C[C@@H]3c4[nH]c5cc(OC)ccc5c4CCN3C[C@H]2C[C@@H](OC(=O)c2cc(OC)c(OC)c(OC)c2)[C@@H]1OC" in this test? active

Which outcome was entered for the compound "CCCCOCCOCCOCc1cc2c(cc1CCC)OCO2" in this test? inactive
